# IC50 values compiled below
molecular target: ITK (Homo sapiens); test: Inhibition of a panel of kinases, in vitro HotSpot kinase assay: ITK; type: biochemical; conditions: D-compounds panel data; 1 μM ATP
Sequence (Q08881 whole entry): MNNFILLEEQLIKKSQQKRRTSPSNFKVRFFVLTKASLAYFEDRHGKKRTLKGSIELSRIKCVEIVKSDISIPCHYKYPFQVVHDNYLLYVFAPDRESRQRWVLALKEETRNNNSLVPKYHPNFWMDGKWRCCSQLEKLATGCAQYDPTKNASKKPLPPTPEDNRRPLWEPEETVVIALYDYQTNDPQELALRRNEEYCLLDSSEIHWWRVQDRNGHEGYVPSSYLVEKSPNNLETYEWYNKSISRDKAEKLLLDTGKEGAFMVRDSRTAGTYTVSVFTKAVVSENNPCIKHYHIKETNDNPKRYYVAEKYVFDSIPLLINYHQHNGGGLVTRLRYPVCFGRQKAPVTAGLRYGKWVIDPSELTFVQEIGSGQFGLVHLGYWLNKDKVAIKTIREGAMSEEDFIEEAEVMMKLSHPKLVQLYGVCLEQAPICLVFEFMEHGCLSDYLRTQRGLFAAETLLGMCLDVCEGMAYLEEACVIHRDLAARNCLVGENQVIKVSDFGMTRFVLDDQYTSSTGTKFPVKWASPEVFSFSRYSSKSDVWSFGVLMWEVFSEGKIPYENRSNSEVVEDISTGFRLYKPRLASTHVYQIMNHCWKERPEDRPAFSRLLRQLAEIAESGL

smilesEntry | IC50
CC(C)n1cc(Nc2nc(N3CCC[C@@H](NC(=O)c4ccc(C5CC5)cc4F)[C@H]3C)cnc2C(N)=O)cn1 | 0.1 to 1 µM
C[C@@H]1[C@H](NC(=O)c2ccc(C3CC3)nc2)CCCN1c1cnc(C(N)=O)c(Nc2ccc(OC3CCN(C)CC3)cc2)n1 | 0.01 to 0.1 µM
C[C@@H]1[C@H](NC(=O)N(C)C)CCCN1c1cnc(C(N)=O)c(Nc2ccc(OC3CCN(C)CC3)cc2)n1 | 0.01 to 0.1 µM
CN1CCN(C(=O)c2ccc(Nc3nc(N4CCC[C@@H](n5ccc6cc(C7CC7)ccc6c5=O)C4)cnc3C(N)=O)cc2)CC1 | 0.1 to 1 µM
C[C@@H]1[C@H](NC(=O)c2ccc(C3CC3)cc2F)CCCN1c1cnc(C(N)=O)c(Nc2ccc3cccnc3c2)n1 | > 10 µM
C[C@@H]1[C@H](NC(=O)c2ccc(C3CC3)cc2F)CCCN1c1cnc(C(N)=O)c(Nc2cc(CN3CCOCC3)ns2)n1 | 0.1 to 1 µM
C[C@@H]1[C@H](NC(=O)c2ccc(C3CC3)cc2)CCCN1c1cnc(C(N)=O)c(Nc2cnn(CC(C)(C)O)c2)n1 | 1 to 10 µM
CC(C)N1CCN(c2ccc(Nc3nc(N4CCC[C@@H](NC(=O)c5ccc(C6CC6)cc5F)[C@H]4C)cnc3C(N)=O)cc2)CC1 | 0.01 to 0.1 µM

###

molecular target: SRC (Homo sapiens, UniProt P12931); assay: Inhibition of a panel of kinases, in vitro HotSpot kinase assay: SRC; assay type: biochemical; conditions: D-compounds panel data; 1 μM ATP
Sequence (P12931 whole entry): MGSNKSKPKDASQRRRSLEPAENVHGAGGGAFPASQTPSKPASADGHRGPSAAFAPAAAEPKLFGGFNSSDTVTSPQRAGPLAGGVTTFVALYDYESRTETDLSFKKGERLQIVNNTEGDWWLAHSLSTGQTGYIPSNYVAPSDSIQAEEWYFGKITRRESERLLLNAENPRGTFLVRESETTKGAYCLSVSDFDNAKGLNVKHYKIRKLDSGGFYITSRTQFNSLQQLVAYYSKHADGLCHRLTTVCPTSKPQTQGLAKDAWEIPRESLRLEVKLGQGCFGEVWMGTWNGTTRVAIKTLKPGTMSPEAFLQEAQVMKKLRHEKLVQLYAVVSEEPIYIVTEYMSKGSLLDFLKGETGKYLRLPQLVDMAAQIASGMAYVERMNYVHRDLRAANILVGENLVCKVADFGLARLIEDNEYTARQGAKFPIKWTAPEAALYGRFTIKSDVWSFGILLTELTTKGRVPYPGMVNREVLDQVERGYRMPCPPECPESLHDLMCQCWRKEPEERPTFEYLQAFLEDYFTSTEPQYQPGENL
pIC50: −log10 of the molar value.

compound | system | pIC50
C[C@@H]1[C@H](NC(=O)c2ccc(C3CC3)cc2)CCCN1c1cnc(C(N)=O)c(Nc2ccc(OC3CCN(C)CC3)cc2)n1 | SRC (Homo sapiens, UniProt P12931) | 7.00 to 8.00
CN1CCN(c2ccc(Nc3nc(N4CCC[C@@H](n5ccc6cc(C7CC7)cc(F)c6c5=O)C4)cnc3C(N)=O)cc2)CC1 | SRC (Homo sapiens, UniProt P12931) | 7.00 to 8.00
C[C@@H]1[C@H](NC(=O)c2ccc(C3CC3)cc2)CCCN1c1cnc(C(N)=O)c(Nc2cc(CN3CCCCC3)ns2)n1 | SRC (Homo sapiens, UniProt P12931) | 7.00 to 8.00
Cn1cc(Nc2nc(N3CCC(NC(=O)c4ccc(C5CC5)cc4)C(O)C3)cnc2C(N)=O)cn1 (single isomer, unassigned) [Example D-28] | SRC (Homo sapiens, UniProt P12931) | 5.00 to 6.00
C[C@@H]1[C@H](NC(=O)c2ccc(C3CC3)cc2)CCCN1c1cnc(C(N)=O)c(Nc2ccc3c(c2)OC(F)(F)O3)n1 | SRC (Homo sapiens, UniProt P12931) | < 5.00
Cn1cc(Nc2nc(N3C4CCC(NC(=O)c5ccc(C6CC6)cc5)C3CC4)cnc2C(N)=O)cn1 (single isomer, unassigned) [Example D-200] | SRC (Homo sapiens, UniProt P12931) | 5.00 to 6.00
C[C@@H]1[C@H](NC(=O)c2ccc3[nH]cnc3c2)CCCN1c1cnc(C(N)=O)c(Nc2cnn(C)c2)n1 | SRC (Homo sapiens, UniProt P12931) | 7.00 to 8.00
C[C@@H]1[C@H](NC(=O)c2ccc(C3CC3)cc2)CCCN1c1cnc(C(N)=O)c(Nc2ccc(OC3CCN4CCCC4C3)cc2)n1 (stereo partly drawn) | SRC (Homo sapiens, UniProt P12931) | 7.00 to 8.00
Cn1cc(Nc2nc(N3CCCC4(C3)CN(c3ccc(C5CC5)cc3)C(=O)O4)cnc2C(N)=O)cn1 (stereo not drawn) | SRC (Homo sapiens, UniProt P12931) | 6.00 to 7.00
CN(C)C(=O)N[C@H]1CCCN(c2cnc(C(N)=O)c(Nc3ccc(C4(C)CCN(C5CCCC5)CC4)cc3)n2)[C@@H]1CO | SRC (Homo sapiens, UniProt P12931) | 5.00 to 6.00
Cn1cc(Nc2nc(N3C4CCC(NC(=O)c5ccc(C6CC6)cc5)C3CC4)cnc2C(N)=O)cn1 (single isomer, unassigned) [Example D-202] | SRC (Homo sapiens, UniProt P12931) | 6.00 to 7.00
C[C@@H]1[C@H](NC(=O)c2ccc(C3CC3)cc2F)CCCN1c1cnc(C(N)=O)c(Nc2ccc(C3(C)CCN(C4CC4)CC3)cc2)n1 | SRC (Homo sapiens, UniProt P12931) | 6.00 to 7.00
CN1CCN(c2ccc(Nc3nc(N4CCC[C@@H](n5ccc6cc(C7CC7)ccc6c5=O)C4)cnc3C(N)=O)nc2)CC1 | SRC (Homo sapiens, UniProt P12931) | < 5.00
C[C@@H]1[C@H](NC(=O)c2ccc3c(c2)OC(F)(F)O3)CCCN1c1cnc(C(N)=O)c(Nc2cnn(C)c2)n1 | SRC (Homo sapiens, UniProt P12931) | 7.00 to 8.00
C[C@@H]1[C@H](NC(=O)c2ccc(C3CC3)cc2F)CCCN1c1cnc(C(N)=O)c(Nc2ccc3ncccc3c2)n1 | SRC (Homo sapiens, UniProt P12931) | 6.00 to 7.00
C[C@H]1CC[C@@H](NC(=O)c2ccc(C3CC3)cc2)CN1c1cnc(C(N)=O)c(Nc2ccc(N3CCN(C)CC3)c(F)c2)n1 | SRC (Homo sapiens, UniProt P12931) | 7.00 to 8.00
C[C@@H]1[C@H](NC(=O)c2ccc(C3CC3)cc2)CCCN1c1cnc(C(N)=O)c(Nc2ccc(OC3CCN(CC(F)(F)F)CC3)cc2)n1 | SRC (Homo sapiens, UniProt P12931) | < 5.00
Cc1cc2cc(C(=O)N[C@@H]3CCCN(c4cnc(C(N)=O)c(Nc5cnn(C)c5)n4)[C@@H]3C)ccc2o1 | SRC (Homo sapiens, UniProt P12931) | 7.00 to 8.00
C[C@@H]1[C@H](NC(=O)N(C)C)CCCN1c1cnc(C(N)=O)c(Nc2ccc(N3CCN(C4CCCC4)CC3)cc2)n1 | SRC (Homo sapiens, UniProt P12931) | 7.00 to 8.00
C[C@@H]1C[C@H](NC(=O)c2ccc(C3CC3)cc2)CN(c2cnc(C(N)=O)c(Nc3cnn(C)c3)n2)C1 | SRC (Homo sapiens, UniProt P12931) | < 5.00
CN1CCN(c2ccc(Nc3cc(N4CCC[C@@H](n5ccc6cc(C7CC7)ccc6c5=O)C4)cnc3C(N)=O)cc2)CC1 | SRC (Homo sapiens, UniProt P12931) | 5.00 to 6.00
